Source of measurements: PubChem BioAssay (NCI)

assay: NCI Yeast Anticancer Drug Screen. Data for the sgs1 strain (AID 173); settings: S. cerevisiae sgs1 mutant, at 100.0 µM
Compounds without any hit were thinned out: in the full panel of roughly 79,000, 15% have a hit. Active and inactive are the calls of the source. No stated cut-off is given here; in the data, active means growth inhibition above about 70%; inactive means the rest.
Write down one outcome, taken from true for active, false for inactive

Worked examples follow.
• Nc1cc2c(cc1N)-c1ccccc1C2=O = true
• O=CC1(F)CC1(c1ccccc1)c1ccccc1 (stereo not drawn) = true
• O=S(=O)(NC1CCCC(c2ccccc2)C1)c1ccccc1 (stereo not drawn) = true
• COC(=O)c1cnc(Cl)c([N+](=O)[O-])c1 = true
• c1c[nH]c(CN2CCN(Cc3ncc[nH]3)CC2)n1 = true
• CCCCCCCCN1COCC(COc2ccccc2C)OC1 (stereo not drawn) = true
• O=C1CC(C(O)(C(F)(F)F)C(F)(F)Cl)CCC1C(O)(C(F)(F)F)C(F)(F)Cl (stereo not drawn) = true
• COc1cc(OC)c(CSCC(NC(=O)OCC2c3ccccc3-c3ccccc32)C(=O)O)c(OC)c1 (stereo not drawn) = true

Query: What call does the record list for CCOc1ccc2nc3ccccc3c(N)c2c1 ?
Response: true

Query: Test call for this compound, please: N#C/C(=C\NC(=S)Nc1ccc(S(N)(=O)=O)cc1)C(=O)c1ccc2ccccc2c1
Response: false

* * *

assay: NCI Yeast Anticancer Drug Screen. Data for the CLN2oe strain (AID 163); conditions: S. cerevisiae CLN2oe strain, at 33.0 µM, hits give high values
About 79,000 compounds went through this panel and 15% of them were active in at least one assay; those are over-represented in the sample as a whole.
# thresholds on growth inhibition define classes: I = under 20%, II = from 20% up to 80%, III = 80% and over

Solved cases below.
- CCCCCCCCCCCCCCN: II
- CCCCCCCCNCCCCCCCC: III
- C/C1=C/C2OC(=O)C3(C)C2C(CC2(C)OC1=CC2=O)OC3(O)C(C)C (configuration not stated): I
- COc1cc2c(cc1O)[C@H](C)C(c1ccccc1OC)O2 (some centres not stated): I
- COc1cc(OC)c(CSCC(NC(=O)OCC2c3ccccc3-c3ccccc32)C(=O)O)c(OC)c1 (configuration not stated): III
- CCCCCCC=C(C(=O)OCC)C(=O)OCC: I
- CC1CN(/N=C\c2ccc([N+](=O)[O-])o2)C(=O)O1 (configuration not stated): I
- CNC(=O)OCc1c(COC(=O)NC)c(C)n(-c2ccc(Br)cc2)c1C: I
- CCCCCc1c(CCCC)c(=O)[nH]c2cc(CNCC(OC)OC)ccc12: III
- C1=CCN([B-](c2ccccc2)[C+]2CCCCC2)C=C1: II

Query: State the class of the compound shown: CCN(CC)CCNc1ccc(C)c2sc3ccc(O)cc3c(=O)c12
Response: III

Query: Could you place CCOC(=O)/C(=C/c1cccc(Cl)c1)N(CC)CC in its proper category? Many thanks.
Response: II

Query: Lab note: which band did Cc1cc(OCc2nc(N)nc(N)c2-c2ccc(Cl)c(Cl)c2)ccc1[N+](=O)[O-] land in?
Response: I

Query: Please let me know in which category the item NC(=S)N1N=C2c3ccccc3CC[C@@H]2[C@@H]1c1ccccc1 belongs.
Response: I

Query: Which growth inhibition category applies to CNCC(C)CNC here?
Response: I

Query: Place this compound in its band: CC(=O)/C=C/c1cc([N+](=O)[O-])ccc1O
Response: III
